Listing: TGI of selected molecules
Tested on: UO-31 renal
protocol_text: NCI tumour cell line growth inhibition, 48 h
Provide the reading as a plain figure in nM.

Worked examples, 2 molecules total:
| smiles_entry | target_or_test_system | unit_info | measured_result |
| --- | --- | --- | --- |
| CC/C=C\C[C@H]1CC=C2C(=O)C=C[C@@H]2CC=CCCCC(=O)O[C@@H](CCCCC)CC=C2C(=O)C=C[C@@H]2CC=CCCCC(=O)O[C@@H](CCCCC)CC=C2C(=O)C=C[C@@H]2CC=CCCCC(=O)O[C@@H](CCCCC)CC=C2C(=O)C=C[C@@H]2CC=CCCCC(=O)O1 | UO-31 renal | nM | 2840 |
| COc1ccc2c(c1)/C(=C\c1c(Cl)[nH]c3cc(C)c(OC)cc13)C(=O)N2 | UO-31 renal | nM | 19200 |

Retrieve TGI measured for `CN(C)CCC(=O)N1C/C(=C\c2ccc(Cl)c(Cl)c2)C(=O)/C(=C/c2ccc(Cl)c(Cl)c2)C1` and print it.
862

Retrieve TGI measured for `CCOc1cc(C(C)(C)C)ccc1C1=N[C@H](c2ccc(Cl)cc2)[C@H](c2ccc(Cl)cc2)N1C(=O)N1CCN(CC#Cc2cccc3c2CN([C@@H]2CCC(=O)NC2=O)C3=O)CC1` and print it.
2000

Retrieve TGI measured for `Nc1n[nH]c2cccc(C#Cc3cccc(NC(=O)c4cccc(C(F)(F)F)c4)c3)c12` and print it.
9450
